# STUDY_TARGET: hNLRP3 (Homo sapiens)
# Construct: THP-1 cells were purchased from the American Type Culture Collection; host or cells: THP-1 cells, PMA-differentiated
# PROTOCOL_SUMMARY: hNLRP3 agonist assay: IL-1β production in PMA-differentiated THP-1 cells (ELISA)
# Format: cell-based
# ASSAY_CONDITIONS: Table 2, 4 hours, IL-1β by ELISA
MEASURE_NAME: EC50

// known answers, use as guide
[[record]]
molecule = "CCCn1cc(-c2ccc3c(c2)nc(N)c2nc(CCCO)[nH]c23)cn1"
result = "1 to 20 µM"

[[record]]
molecule = "CC(C)c1ccc2c(c1)nc(N)c1nc(CCCO)[nH]c12"
result = "1 to 20 µM"

[[record]]
molecule = "Nc1nc2cc(-c3ccc(O)nc3)ccc2c2[nH]c(CCCO)nc12"
result = "> 100 µM"

[[record]]
molecule = "Nc1nc2cc(-c3cc[nH]n3)ccc2c2[nH]c(CCCO)nc12"
result = "≤ 1 µM"


// Input: `Nc1nc2cc(-c3ccsc3)ccc2c2[nH]c(CCCO)nc12` . Output its EC50 only.
≤ 1 µM

Identify EC50 associated with the molecule CC(C(=O)O)c1ccc2c(c1)nc(N)c1nc(CCCO)[nH]c12 (stereo not drawn)
1 to 20 µM

Give the reported EC50 for this molecule. `COc1ccc(-c2ccc3c(c2)nc(N)c2nc(CCCO)[nH]c23)cc1`
> 100 µM

Please report EC50 for the following molecule: CCNC(C)c1nc2c(N)nc3cc(-c4cc[nH]n4)ccc3c2[nH]1 (stereo not drawn)
1 to 20 µM

Identify the reported EC50 for the following entry. `CC(=O)NCCCn1c(C2CCN(C(=O)c3ccccc3)CC2)nc2c(N)nc3cc(Br)ccc3c21`
20 to 100 µM

Please list EC50 recorded for the molecule `Nc1nc2cc(-c3ccccc3Cl)ccc2c2[nH]c(CCCO)nc12`
> 100 µM

----------
# STUDY_TARGET: TLR8 (Homo sapiens, UniProt Q9NR97)
# Sequence (Q9NR97 27-1041, species assumed): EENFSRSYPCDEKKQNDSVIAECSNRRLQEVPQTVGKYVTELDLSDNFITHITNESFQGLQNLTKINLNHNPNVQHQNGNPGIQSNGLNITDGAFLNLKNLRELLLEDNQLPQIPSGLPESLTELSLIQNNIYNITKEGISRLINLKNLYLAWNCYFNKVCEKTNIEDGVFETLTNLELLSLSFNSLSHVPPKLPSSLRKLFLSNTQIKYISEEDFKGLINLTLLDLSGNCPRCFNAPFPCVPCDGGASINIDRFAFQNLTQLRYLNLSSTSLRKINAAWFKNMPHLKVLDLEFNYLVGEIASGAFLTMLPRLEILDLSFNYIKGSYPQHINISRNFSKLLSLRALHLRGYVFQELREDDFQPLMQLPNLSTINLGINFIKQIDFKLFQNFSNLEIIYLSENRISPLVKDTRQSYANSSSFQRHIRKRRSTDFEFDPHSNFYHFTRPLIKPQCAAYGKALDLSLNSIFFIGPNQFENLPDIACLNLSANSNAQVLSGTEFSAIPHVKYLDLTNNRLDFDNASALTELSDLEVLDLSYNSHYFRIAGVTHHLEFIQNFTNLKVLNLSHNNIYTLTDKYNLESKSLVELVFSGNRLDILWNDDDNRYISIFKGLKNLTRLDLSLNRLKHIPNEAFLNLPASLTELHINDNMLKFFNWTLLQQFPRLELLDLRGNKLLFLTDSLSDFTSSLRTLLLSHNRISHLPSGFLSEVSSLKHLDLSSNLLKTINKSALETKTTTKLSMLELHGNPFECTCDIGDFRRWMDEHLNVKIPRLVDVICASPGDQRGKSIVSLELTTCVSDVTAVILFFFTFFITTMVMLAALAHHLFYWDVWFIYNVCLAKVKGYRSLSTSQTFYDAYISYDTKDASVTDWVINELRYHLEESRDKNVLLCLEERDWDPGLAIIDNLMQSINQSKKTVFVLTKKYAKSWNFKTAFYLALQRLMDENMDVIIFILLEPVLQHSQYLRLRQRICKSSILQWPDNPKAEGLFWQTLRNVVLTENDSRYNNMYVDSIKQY
# PROTOCOL_SUMMARY: TLR8 EC50 assay
# Type: cell-based
# ASSAY_CONDITIONS: Table 2
pEC50: −log10 of the molar value.
MEASURE_NAME: pEC50

Look over these answered cases.
[[record]]
compound = "Cc1ccncc1-c1ccc2c(c1)nc(N)c1nc(CCCO)[nH]c12"
result = "< 4.00"

[[record]]
compound = "N#Cc1ccccc1-c1ccc2c(c1)nc(N)c1nc(CCCO)[nH]c12"
result = "< 4.00"

[[record]]
compound = "CCN(C(C)=O)C(C)(C)c1nc2c(N)nc3cc(-c4cc[nH]n4)ccc3c2[nH]1"
result = "< 4.00"


Identify measured pEC50 corresponding to `CC(=O)NCCCn1c(C2CCN(C(=O)c3ccccc3)CC2)nc2c(N)nc3cc(Br)ccc3c21`
< 4.00

In one line, give reported pEC50 of the entry `CCCn1cc(-c2ccc3c(c2)nc(N)c2nc(CCCO)[nH]c23)cn1` .
< 4.00

Fill in pEC50 for record `Nc1nc2cc(-n3cccn3)ccc2c2[nH]c(CCCO)nc12`
4.00 to 4.70

Consider the compound `CC(C)c1ccc2c(c1)nc(N)c1nc(CCCO)[nH]c12` and give its recorded pEC50.
< 4.00

// Input: `Nc1nc2cc(-c3cccc(F)c3)ccc2c2[nH]c(CCCO)nc12` . Output its pEC50 only.
< 4.00

Determine from records and report pEC50 for `COc1ccccc1-c1ccc2c(c1)nc(N)c1nc(CCCO)[nH]c12`
< 4.00

----------
# STUDY_TARGET: hNLRP3 (Homo sapiens)
# Construct: THP-1 cells were purchased from the American Type Culture Collection; host or cells: THP-1 cells, PMA-differentiated
# PROTOCOL_SUMMARY: hNLRP3 agonist assay: IL-1β production in PMA-differentiated THP-1 cells (ELISA)
# Type: cell-based
# ASSAY_CONDITIONS: Table 2, 4 hours, IL-1β by ELISA
pEC50: −log10 of the molar value.
MEASURE_NAME: pEC50

Sample records with pEC50:
[[record]]
compound = "Cc1ccccc1-c1ccc2c(c1)nc(N)c1nc(CCCO)[nH]c12 [Compound 199]"
result = "< 4.00"

[[record]]
compound = "Nc1nc2cc(N3CCNC3=O)ccc2c2[nH]c(CCCO)nc12 [Compound 115]"
result = "4.70 to 6.00"

[[record]]
compound = "COc1cncc(-c2ccc3c(c2)nc(N)c2nc(CCCO)[nH]c23)c1 [Compound 175]"
result = "< 4.00"

[[record]]
compound = "Nc1nc2cc(-c3nccs3)ccc2c2[nH]c(CCCO)nc12 [Compound 184]"
result = "< 4.00"

[[record]]
compound = "Nc1nc2cc(Cl)ccc2c2[nH]c(CCCO)nc12 [Compound 165]"
result = "4.00 to 4.70"


State, in one line, measured pEC50 of Nc1nc2ccccc2c2[nH]c([C@H]3C[C@@H](O)C3)nc12 [Compound 132]
4.00 to 4.70

Give the value of pEC50 reported for the following: Nc1nc2cc(Br)ccc2c2[nH]c([C@H]3CC[C@H](O)CC3)nc12 [Compound 125]
4.70 to 6.00

----------
# EC50 per record follows
# STUDY_TARGET: hNLRP3 (Homo sapiens)
# Construct: THP-1 cells were purchased from the American Type Culture Collection; host or cells: THP-1 cells, PMA-differentiated
# PROTOCOL_SUMMARY: hNLRP3 agonist assay: IL-1β production in PMA-differentiated THP-1 cells (ELISA)
# Assay type: cell-based
# ASSAY_CONDITIONS: Table 2, 4 hours, IL-1β by ELISA

Report its EC50 with hNLRP3 (Homo sapiens) as the test system: `Cc1cc2nc(N)c3nc(CCCO)[nH]c3c2cc1F`
20 to 100 µM

----------
# STUDY_TARGET: TLR8 (Homo sapiens)
# PROTOCOL_SUMMARY: TLR8 EC50 assay
# Format: cell-based
# ASSAY_CONDITIONS: Table 2
Listed next: entries and their corresponding EC50.

Some entries whose results are on file:
[[record]]
molecule = "Nc1nc2cc(-c3cccc(=O)[nH]3)ccc2c2[nH]c(CCCO)nc12 [Compound 239]"
study_target = "TLR8 (Homo sapiens)"
measure_name = "EC50"
result = "> 100 µM"

[[record]]
molecule = "Nc1nc2cc(C3CCCC3)ccc2c2[nH]c(CCCO)nc12 [Compound 161]"
study_target = "TLR8 (Homo sapiens)"
measure_name = "EC50"
result = "> 100 µM"


Please report EC50 for the following molecule: CN1CCC[C@@H](c2nc3c(N)nc4ccccc4c3[nH]2)C1 [Compound 139]
> 100 µM

Input COc1ccc2c(c1)nc(N)c1nc(CCCO)[nH]c12 [Compound 124] , output reported EC50.
> 100 µM

Output measured EC50 for this item: Nc1nc2cc(-c3cccnc3Cl)ccc2c2[nH]c(CCCO)nc12 [Compound 215]
20 to 100 µM

State its EC50 for this molecule: Nc1nc2cc(Br)ccc2c2[nH]c(C3CCC(N)CC3)nc12 (stereo not drawn) [Compound 131]
20 to 100 µM

Could you please provide reported EC50 for COc1cccc(-c2ccc3c(c2)nc(N)c2nc(CCCOCc4ccccc4)[nH]c23)n1 [Compound 247] ? Thanks!
> 100 µM

Let me know recorded EC50 for Nc1nc2cc(NC(=O)c3ccccc3)ccc2c2[nH]c(CCCO)nc12 [Compound 180] , thanks.
> 100 µM

Return the recorded EC50 value; entry: Nc1nc2cc(F)c(F)cc2c2[nH]c(CCCO)nc12 [Compound 136]
> 100 µM

----------
# pEC50 values compiled below
# STUDY_TARGET: hNLRP3 (Homo sapiens, UniProt Q96P20)
# Construct: THP-1 cells were purchased from the American Type Culture Collection; host or cells: THP-1 cells, PMA-differentiated
# Sequence (Q96P20 whole entry): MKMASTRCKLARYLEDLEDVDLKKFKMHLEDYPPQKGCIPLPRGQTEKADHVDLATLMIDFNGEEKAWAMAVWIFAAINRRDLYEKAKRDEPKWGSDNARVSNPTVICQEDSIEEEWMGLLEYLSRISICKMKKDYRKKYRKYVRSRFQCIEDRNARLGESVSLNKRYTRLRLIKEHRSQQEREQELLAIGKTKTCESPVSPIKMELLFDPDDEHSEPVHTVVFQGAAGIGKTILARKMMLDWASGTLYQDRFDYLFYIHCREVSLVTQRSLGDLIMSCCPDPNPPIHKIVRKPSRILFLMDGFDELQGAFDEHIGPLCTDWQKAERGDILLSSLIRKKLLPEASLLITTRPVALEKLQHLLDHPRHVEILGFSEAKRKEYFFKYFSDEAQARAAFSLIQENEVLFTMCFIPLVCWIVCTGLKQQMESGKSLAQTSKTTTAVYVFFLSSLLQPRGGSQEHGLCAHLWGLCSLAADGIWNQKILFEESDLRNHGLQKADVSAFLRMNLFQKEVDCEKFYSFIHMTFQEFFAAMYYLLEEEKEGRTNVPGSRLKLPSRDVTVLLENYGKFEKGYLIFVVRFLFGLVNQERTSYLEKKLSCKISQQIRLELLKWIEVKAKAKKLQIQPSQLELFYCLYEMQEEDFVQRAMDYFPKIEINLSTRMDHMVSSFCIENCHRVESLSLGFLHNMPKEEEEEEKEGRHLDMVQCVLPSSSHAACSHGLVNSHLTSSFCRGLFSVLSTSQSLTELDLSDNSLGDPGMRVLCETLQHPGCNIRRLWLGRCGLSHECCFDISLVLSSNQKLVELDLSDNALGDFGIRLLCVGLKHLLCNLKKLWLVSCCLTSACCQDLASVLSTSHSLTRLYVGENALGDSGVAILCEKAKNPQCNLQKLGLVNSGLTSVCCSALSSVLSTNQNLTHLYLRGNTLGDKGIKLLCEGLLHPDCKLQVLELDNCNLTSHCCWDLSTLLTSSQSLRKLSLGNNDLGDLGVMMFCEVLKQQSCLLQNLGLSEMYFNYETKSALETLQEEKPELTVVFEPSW
# PROTOCOL_SUMMARY: hNLRP3 agonist assay: IL-1β production in PMA-differentiated THP-1 cells (ELISA)
# Assay type: cell-based
# ASSAY_CONDITIONS: Table 2, 4 hours, IL-1β by ELISA
# Method: THP-1 cells were purchased from the American Type Culture Collection and sub-cultured according to instructions from the supplier. Prior to experiments, cells were cultured in RPMI 1640 containing 10% heat inactivated FBS, penicillin (100 units/ml) and streptomycin (100 μg/ml), and maintained in log phase prior to experimental setup. […] Cell free supernatant was collected and the production of IL-1β was evaluated by ELISA. […]
pEC50: −log10 of the molar value.

[[record]]
compound = "CN(C)c1ncc(-c2ccc3c(c2)nc(N)c2nc(CCCO)[nH]c23)cn1 [Compound 156]"
study_target = "hNLRP3 (Homo sapiens, UniProt Q96P20)"
result = "< 4.00"


Provide measured pEC50 on hNLRP3 (Homo sapiens, UniProt Q96P20) for Nc1nc2cc(-c3cccnc3)ccc2c2[nH]c(CCCOCc3ccccc3)nc12 [Compound 146] please.
4.00 to 4.70

Provide the reported pEC50 (system: hNLRP3 (Homo sapiens, UniProt Q96P20)) for Cc1cc(-c2ccc3c(c2)nc(N)c2nc(CCCO)[nH]c23)n(C)n1 [Compound 151]
4.70 to 6.00

State, for hNLRP3 (Homo sapiens, UniProt Q96P20), measured pEC50 of the compound listed here: Nc1nc2cc(-c3cccc(Cl)c3)ccc2c2[nH]c(CCCO)nc12 [Compound 204]
< 4.00

Report the value of pEC50 obtained on hNLRP3 (Homo sapiens, UniProt Q96P20) for Nc1nc2cc(-c3ccncc3)ccc2c2[nH]c(CCCO)nc12 [Compound 149] .
4.70 to 6.00

Name the value of pEC50 reported for Nc1nc2cc(N3CCOCC3)ccc2c2[nH]c(CCCO)nc12 [Compound 168] when tested on hNLRP3 (Homo sapiens, UniProt Q96P20).
< 4.00

System hNLRP3 (Homo sapiens, UniProt Q96P20). Read-out pEC50. Item CN(C)C(=O)CCCn1c(CCCO)nc2c(N)nc3cc(Br)ccc3c21 [Compound 169] . Report value.
4.70 to 6.00

Name the recorded pEC50 of Nc1nc2cc(C3CCNCC3)ccc2c2[nH]c(CCCO)nc12 [Compound 198] , assay system hNLRP3 (Homo sapiens, UniProt Q96P20).
< 4.00

# return pEC50 for COc1cccc(-c2ccc3c(c2)nc(N)c2nc(CCCOCc4ccccc4)[nH]c23)n1 [Compound 247] , test system: hNLRP3 (Homo sapiens, UniProt Q96P20)
4.70 to 6.00

State measured pEC50 of the compound Nc1nc2cc(Br)ccc2c2[nH]c(C3CCC(O)CC3)nc12 (centres unmarked) [Compound 116] with hNLRP3 (Homo sapiens, UniProt Q96P20).
4.70 to 6.00

Write down the reported pEC50 (system: hNLRP3 (Homo sapiens, UniProt Q96P20)) of Nc1nc2cc(-c3cc[nH]n3)ccc2c2[nH]c(CN3CCCC3)nc12 [Compound 233]
≥ 6.00

Data origin, for the record: patent US11072612B2
